Test system: brain cancer cell (glioma) U118
Assay: Brain cancer (glioma) U118 cell growth
Type: cell-based
Settings: 72 hours of incubation
Experimental: For the experiments shown in FIG. 1, cultured human Non Small Cell Lung Cancer cells (A549) in RPMI 1640 were used, supplemented with 10% foetal bovine serum and antibiotics, at 37° C. and 5% CO2. Cells were maintained in culture for 48 hours in the presence or absence of D-PUFAs and PUFAs indicated in Table 2 at a concentration of 250 µM. After treatment, cell count was performed and the study of the mechanisms involved in the antitumor activity of compounds was evaluated by flow cytometry. […]
The following ranges of IC50 define the classes used here: low range (below 300 µM), mid range (300 µM to below 400 µM), high range (400 µM or more)

Worked examples follow.
CCC=CCC=CCC=CCC=CCC=CCC=CCC(F)C(=O)OCC (centres unmarked) = low range
CCCCCC=CCC=CCCCCCCC(O)C(=O)OP(=O)(OCC)OCC (centres unmarked) = low range
CCCCCC=CCC=CCC=CCC=CCCC(O)C(=O)OP(=O)(OCC)OCC (centres unmarked) = low range
CCC=CCC=CCC=CCCCCCCC(C)C(=O)OC (centres unmarked) = mid range

Req: Place this compound in its band: CCC=CCC=CCC=CCC=CCC=CCCC(CO)C(=O)O (centres unmarked)
Resp: high range

Req: Place this compound in its band: CCC=CCC=CCC=CCC=CCC=CCCC(O)C(=O)OCC (centres unmarked)
Resp: high range

Req: Place this compound in its band: CCCCCC=CCC=CCC=CCC=CCCC(OC)C(=O)OCC (centres unmarked)
Resp: mid range

Req: Place this compound in its band: CCC=CCC=CCC=CCCCCCCC(F)C(=O)OCC (centres unmarked)
Resp: mid range

Req: Place this compound in its band: CCCCCC=CCC=CCCCCCCC(C(=O)OCC)N(OCC)OCC (centres unmarked)
Resp: low range

Req: Place this compound in its band: CCC=CCC=CCC=CCC=CCC=CCCC(OC=O)C(=O)OC (centres unmarked)
Resp: high range

----------
test system: apolipoprotein AI (apoA-I); test: Levels of apoA-I in SHR rats (RT-PCR); assay type: in vivo, rat; settings: 200 mg/kg day p.o., 30 days, before treatment 100%
QUANTITY_NAME: Levels of apoA-I (%)
The reply should contain only the number, in %.

Examples from the recorded data:
CCCCCC=CCC=CCC=CCCCC(O)C(=O)OP(=O)(OCC)OCC (stereo not shown) = 279
CCC=CCC=CCC=CCCCCCCC(CO)C(=O)O (stereo not shown) = 178
CC/C=C\C/C=C\C/C=C\C/C=C\C/C=C\C/C=C\CC(O)C(=O)[O-].[Na+] (stereo not shown) = 333
CCC=CCC=CCC=CCCCCCCC(C)C(=O)[O-].[Na+] (stereo not shown) = 125

// Levels of apoA-I lookup, compound = CCCCCC=CCC=CCC=CCCCC(O)C(=O)O (stereo not shown) [183A2, 2-hydroxy-6,9,12-octadecatrienoic acid] , result: 311

// Levels of apoA-I lookup, compound = CCCCCC=CCC=CCCCCCCC(CO)C(=O)O (stereo not shown) , result: 184

// Levels of apoA-I lookup, compound = CCC=CCC=CCC=CCC=CCC=CCCC(O)C(=O)[O-].[Na+] (stereo not shown) , result: 264

// Levels of apoA-I lookup, compound = CCCCCC=CCC=CCC=CCC=CCCC(CO)C(=O)O (stereo not shown) , result: 153

// Levels of apoA-I lookup, compound = CCCCCC=CCC=CCC=CCC=CCCC(C)C(=O)OCC (stereo not shown) , result: 174

// Levels of apoA-I lookup, compound = CCC=CCC=CCC=CCCCCCCC(O)C(=O)OP(=O)(OCC)OCC (stereo not shown) , result: 146

----------
Assay: Lamellar-to-hexagonal (HII) transition temperature in DEPE model membranes by Differential Scanning Calorimetry
Type: physicochemical
Conditions: DEPE (4 mM), 200 μM compound, series A; control 64.5
Method: The transition temperature was determined by Differential Scanning Calorimetry. The proportion DEPE:D-PUFA was 10:1 (mol:mol) in all cases. Lamellar-to-hexagonal transition is an important parameter that reflects relevant signalling properties of cell membranes. […]
Recorded Transition temperature (lamellar to HII) by entry
The reply should contain only the number, in °C.

CCC=CCC=CCC=CCC=CCC=CCCC(O)C(=O)O (stereo not drawn) = 47.9
CCC=CCC=CCC=CCC=CCC=CCC=CCC(O)C(=O)O (stereo not drawn) = 44.4
CCCCCC=CCC=CCCCCCCC(O)C(=O)O (stereo not drawn) [182A1, 2-hydroxy-9,12-octadecadienoic acid] = 51.8
CCCCCC=CCC=CCC=CCC=CCCC(O)C(=O)O (stereo not drawn) = 49.3
CCCCCC=CCC=CCC=CCCCC(O)C(=O)O (stereo not drawn) [183A2, 2-hydroxy-6,9,12-octadecatrienoic acid] = 50.1

Now turn to the next compound.
// Transition temperature (lamellar to HII) lookup, compound = CCC=CCC=CCC=CCCCCCCC(O)C(=O)O (stereo not drawn) [183A1, 2-hydroxy-9,12,15-octadecatrienoic acid] , result: 51.6

----------
Recorded IC50 by entry
tested on: brain cancer cell (glioma) U118; assay: Brain cancer (glioma) U118 cell growth; format: cell-based; conditions: 72 hours of incubation
The reply should contain only the number, in µM.

Examples from the recorded data:
CCC=CCC=CCC=CCC=CCC=CCC=CCC(OC)C(=O)OCC (centres unmarked) = 327
CCC=CCC=CCC=CCC=CCC=CCCC(OP(=O)(OCC)OCC)C(=O)OCC (centres unmarked) = 468
CCCCCC=CCC=CCC=CCCCC(OC)C(=O)OCC (centres unmarked) = 432
CCC=CCC=CCC=CCCCCCCC(OC=O)C(=O)OC (centres unmarked) = 343
CCC=CCC=CCC=CCC=CCC=CCCC(OC)C(=O)O (centres unmarked) = 426

// IC50 lookup, molecule = CCCCCC=CCC=CCC=CCCCC(OP(=O)(OCC)OCC)C(=O)OCC (centres unmarked) , result: 454

// IC50 lookup, molecule = CCC=CCC=CCC=CCC=CCC=CCC=CCC(O)C(=O)O (centres unmarked) [226A1] , result: 214

// IC50 lookup, molecule = CCCCCC=CCC=CCCCCCCC(F)C(=O)OCC (centres unmarked) , result: 214

// IC50 lookup, molecule = CCCCCC=CCC=CCC=CCCCC(C)C(=O)OCC (centres unmarked) , result: 385

// IC50 lookup, molecule = CCCCCC=CCC=CCC=CCC=CCCC(C)C(=O)OC (centres unmarked) , result: 309

// IC50 lookup, molecule = CCC=CCC=CCC=CCC=CCC=CCC=CCC(O)C(=O)O (centres unmarked) [226C1] , result: 237

----------
system: brain cancer cell (glioma) U118; assay: Brain cancer (glioma) U118 cell growth; type: cell-based; conditions: 72 hours of incubation
Recorded pIC50 by entry
Expect pIC50 as a plain number equal to -log10 of the molar concentration.

Examples from the recorded data:
CCC=CCC=CCC=CCC=CCC=CCCC(C)C(=O)[O-].[Na+] (centres unmarked) = 3.36
CCCCCC=CCC=CCC=CCC=CCCC(CO)C(=O)OCC (centres unmarked) = 3.49
CCCCCC=CCC=CCC=CCCCC(OC=O)C(=O)OCC (centres unmarked) = 3.40
CCC=CCC=CCC=CCCCCCCC(Cl)C(=O)OCC (centres unmarked) = 3.43

Now turn to the next compound.
// pIC50 lookup, compound = CCCCCC=CCC=CCC=CCCCC(O)C(=O)OP(=O)(OCC)OCC (centres unmarked) , result: 3.40

----------
tested on: brain cancer cell (glioma) U118; assay: Brain cancer (glioma) U118 cell growth; assay type: cell-based; details: 72 hours of incubation
QUANTITY_NAME: IC50 (µM)
The reply should contain only the number, in µM.

Examples from the recorded data:
CCCCCC=CCC=CCC=CCC=CCCC(C)C(=O)OCC (centres unmarked) = 315
CCC=CCC=CCC=CCCCCCCC(OC)C(=O)OC (centres unmarked) = 408
CCCCCC=CCC=CCC=CCC=CCCC(O)C(=O)O (centres unmarked) [204C1] = 287
CCCCCC=CCC=CCC=CCCCC(OC)C(=O)OC (centres unmarked) = 443

// IC50 lookup, molecule = CCCCCC=CCC=CCC=CCCCC(C(=O)OCC)N(OCC)OCC (centres unmarked) , result: 438

// IC50 lookup, molecule = CCCCCC=CCC=CCC=CCC=CCCC(OC)C(=O)O (centres unmarked) , result: 342

// IC50 lookup, molecule = CCCCCC=CCC=CCC=CCC=CCCC(OC=O)C(=O)OCC (centres unmarked) , result: 345

----------
test: Lamellar-to-hexagonal (HII) transition temperature in DEPE model membranes by Differential Scanning Calorimetry; format: physicochemical; conditions: DEPE membranes, DEPE:D-PUFA 10:1 (mol:mol)
QUANTITY_NAME: Temperature of lamellar-to-hexagonal transition (°C)
The reply should contain only the number, in °C.

Examples from the recorded data:
CCCCCC=CCC=CCCCCCCC(Cl)C(=O)OCC (stereo not drawn) = 51.7
CCCCCC=CCC=CCC=CCCCC(O)C(=O)OC (stereo not drawn) = 49.4
CCCCCC=CCC=CCCCCCCC(OP(=O)(OCC)OCC)C(=O)OCC (stereo not drawn) = 52.2
CCC=CCC=CCC=CCC=CCC=CCC=CCC(O)C(=O)OCC (stereo not drawn) = 42.9
CCC=CCC=CCC=CCCCCCCC(O)C(=O)OCC (stereo not drawn) = 49.8

// Temperature of lamellar-to-hexagonal transition lookup, molecule = CCC=CCC=CCC=CCCCCCCC(O)C(=O)OC (stereo not drawn) , result: 51.1
